Tested System: recombinant human MetAP2 (Homo sapiens)
Construct: Flag
Sequence (P50579 whole entry): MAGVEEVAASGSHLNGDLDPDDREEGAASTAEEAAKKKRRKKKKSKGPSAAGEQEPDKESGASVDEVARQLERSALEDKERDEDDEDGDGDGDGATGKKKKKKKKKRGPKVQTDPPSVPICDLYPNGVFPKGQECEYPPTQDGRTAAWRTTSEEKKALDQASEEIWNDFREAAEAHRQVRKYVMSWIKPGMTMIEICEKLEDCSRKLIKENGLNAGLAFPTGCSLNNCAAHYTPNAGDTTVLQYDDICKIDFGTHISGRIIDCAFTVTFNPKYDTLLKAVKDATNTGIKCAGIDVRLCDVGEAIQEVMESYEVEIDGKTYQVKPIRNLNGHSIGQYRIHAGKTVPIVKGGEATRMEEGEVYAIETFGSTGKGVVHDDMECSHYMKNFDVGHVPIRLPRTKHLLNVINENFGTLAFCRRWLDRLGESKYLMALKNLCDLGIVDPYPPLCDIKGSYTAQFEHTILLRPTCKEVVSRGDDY
Experimental Details: Inhibition of recombinant human MetAP2 activity (Amplex red fluorescence assay)
Reported Conditions: manganese Flag-MetAP2, 0.75 mM Methionine-Alanine-Serine substrate, 30 minutes at 25° C., pH 7.5, 1% DMSO
pIC50: −log10 of the molar value. Where a name gives a salt, the structure may show the parent alone.
Assay Readout: pIC50

Examples from the recorded data:
> print(dat)
                                   molecule                            tested.system  reported.result
1  CC(N)COc1c(-c2ccoc2)ccc(CS(=O)(=O)c2ccccc2)c1C(=O)O (centres unmarked) [hydrochloride]  recombinant human MetAP2 (Homo sapiens)           < 5.70
2  COc1c(-c2ccoc2)ccc(CS(=O)(=O)c2ccccc2/C=C\CN2CCCCC2)c1C(=O)O  recombinant human MetAP2 (Homo sapiens)           > 6.70
3  COc1c(-c2ccoc2)ccc(CS(=O)(=O)c2ccccc2)c1C(=O)O  recombinant human MetAP2 (Homo sapiens)           > 6.70
4  COc1cccc2ccc(CS(=O)(=O)c3ccccc3)c(C(=O)O)c12  recombinant human MetAP2 (Homo sapiens)           < 5.70

# next molecule below
pIC50 for recombinant human MetAP2 (Homo sapiens) with input `COc1c(-n2cccn2)ccc(CS(=O)(=O)c2ccccc2)c1C(=O)O` equals < 5.70

====

Recorded IC50 values for a group of compounds are listed next.
Tested System: recombinant human MetAP2 (Homo sapiens)
Construct: Flag
Experimental Details: Inhibition of recombinant human MetAP2 activity (Amplex red fluorescence assay)
Reported Conditions: manganese Flag-MetAP2, 0.75 mM Methionine-Alanine-Serine substrate, 30 minutes at 25° C., pH 7.5, 1% DMSO

> print(dat)
                                   compound  assay.readout  reported.result
1  COc1c(Br)ccc(CS(=O)(=O)c2ccccc2)c1C(=O)O           IC50   200 to 2000 nM

IC50 for recombinant human MetAP2 (Homo sapiens) with input `CCc1ccc(CS(=O)(=O)c2ccccc2)c(C(=O)O)c1-c1ccn(C)n1` equals > 2000 nM

IC50 for recombinant human MetAP2 (Homo sapiens) with input `COc1c(-c2ccoc2)ccc(CS(=O)(=O)c2ccccn2)c1C(=O)O` equals < 200 nM

IC50 for recombinant human MetAP2 (Homo sapiens) with input `COc1c(-c2ccoc2)ccc(CS(=O)(=O)N2CCCC2)c1C(=O)O` equals 200 to 2000 nM

====

Tested System: recombinant human MetAP2 (Homo sapiens)
Construct: Flag
Experimental Details: Inhibition of recombinant human MetAP2 activity (Amplex red fluorescence assay)
Reported Conditions: manganese Flag-MetAP2, 0.75 mM Methionine-Alanine-Serine substrate, 30 minutes at 25° C., pH 7.5, 1% DMSO
Protocol: Compounds are tested for their capacity to inhibit recombinant human MetAP2 activity using the following assay. Human recombinant Flag-MetAP2 expressed in Sf9 cells followed by affinity purification and EDTA treatment to remove endogenous active site cation is dialysed against MnCl2 to produce the manganese enzyme used in the assay. […] The fluorescent signal is detected using a multiwell fluorimeter. […]
Recorded IC50 values for a group of molecules are listed next.

Examples from the recorded data:
> print(dat)
                                 cpd.smiles  assay.readout  reported.result
1  COc1c(-c2ccoc2)ccc(CS(=O)(=O)c2ccccc2Cl)c1C(=O)O           IC50      0.2 to 2 µM
2  CCc1c(-c2ccoc2)ccc(CS(=O)(=O)c2ccccc2)c1C(=O)O           IC50      0.2 to 2 µM
3  CCN(CC)CCCc1ccccc1S(=O)(=O)Cc1ccc(-c2ccoc2)c(OC)c1C(=O)O           IC50         < 0.2 µM

IC50 for recombinant human MetAP2 (Homo sapiens) with input `CC#Cc1c(-c2ccoc2)ccc(CS(=O)(=O)c2ccccc2)c1C(=O)O` equals > 2 µM

IC50 for recombinant human MetAP2 (Homo sapiens) with input `COc1c(-c2cccs2)ccc(CS(=O)(=O)c2ccccc2)c1C(=O)O` equals > 2 µM

IC50 for recombinant human MetAP2 (Homo sapiens) with input `COc1c(-c2ccco2)ccc(CS(=O)(=O)c2ccccc2)c1C(=O)O` equals > 2 µM
